Reference for the values: patent US20170183660

# STUDY TARGET: T1, MAGE-A3 peptide 111-125 (unmodified) (UniProt P43357)
# T1 chain: RKVAELVHFLLLKYR
# RUN DESCRIPTION: ITC; 25 C, DPBS with 0.45% glucose, 5 mM MgCl2; dH -41 kcal/mol
# PARTICULARS: protein: synthetic; tags: none; peptide (synthetic, inferred)
MEASURE: pKd
Note on pKd: it is the negative log10 of concentration, concentration in mol/L.

Using the record for AGCACTCAATATTCCC (ssDNA) [Ap16] , report its pKd.
7.02
